Study System: Neuropeptides B/W receptor type 1 (Homo sapiens)
Experimental Details: GPR7 receptor antagonists, primary screen, cell-based, fluorescence, single concentration (AID 1861);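 also: cells stimulated with the agonist NPW; 0% = agonist with vehicle and 100% = vehicle without agonist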
Measurement Setup: GPR7-expressing cells, fluorescence antagonist assay; at 4.4 µM; active compounds read high
Out of some 290,000 compounds screened, about 3,100 (1.1%) were called active. Many of the other results were omitted from the sample, so actives are more common in it than they were.
Output Yes for inhibition not less than 10%; output No otherwise.

Field: example entries. Status: answers known.
Cc1ccc(S(=O)(=O)N2CCC(C(=O)N[C@@H](C)C(=O)NCc3ccco3)CC2)cc1
No
CCCC(=O)Nc1ccc(Cl)c(NC(=O)c2ccc(Br)o2)c1
No

Q: For this compound, is measured inhibition 10% or higher? `COc1ccc(CN(C)C(=O)Cc2ccsc2)c(OC)c1OC`
Result: No

Q: For this compound, is measured inhibition 10% or higher? `CCN(CC)S(=O)(=O)c1ccc(NC(=O)c2cnc(C)cn2)cc1`
Result: No

Q: For this compound, is measured inhibition 10% or higher? `O=[N+]([O-])c1ccc(N(CCO)Cc2ccccc2)c([N+](=O)[O-])c1`
Result: Yes

Q: For this compound, is measured inhibition 10% or higher? Cc1cnc(CN(C)C(=O)C2CCC(=O)N(CCc3cccc(F)c3)C2)[nH]1 (stereo not drawn)
Result: No

Q: For this compound, is measured inhibition 10% or higher? `COc1cccc(CNC(=O)COc2cc(O)c3c(c2)OC(C)(C)CC3=O)c1`
Result: No

Q: For this compound, is measured inhibition 10% or higher? `CCOC(=O)C1(CCOc2ccccc2)CCN(Cc2cc(OC)cc(OC)c2)CC1`
Result: Yes

Q: For this compound, is measured inhibition 10% or higher? COc1cc(C2NC(=O)NC(c3ccccc3)=C2C(C)=O)c(Br)cc1OCC(N)=O (stereo not drawn)
Result: No

Q: For this compound, is measured inhibition 10% or higher? COc1cc(OC)c(NC(=O)C2CCCN2C(=O)OCc2ccccc2)cc1Cl (stereo not drawn)
Result: No

Q: For this compound, is measured inhibition 10% or higher? `CC1CCN(S(=O)(=O)c2ccc(S(=O)(=O)NCc3cccnc3)cc2)CC1`
Result: No

Q: For this compound, is measured inhibition 10% or higher? `CC(=O)Nc1ccc(Oc2ccc3c(c2)C(=O)NC3=O)cc1`
Result: No

----------
Study System: Neuropeptides B/W receptor type 1 (Homo sapiens) (UniProt P48145)
Sequence (P48145 whole entry, looked up): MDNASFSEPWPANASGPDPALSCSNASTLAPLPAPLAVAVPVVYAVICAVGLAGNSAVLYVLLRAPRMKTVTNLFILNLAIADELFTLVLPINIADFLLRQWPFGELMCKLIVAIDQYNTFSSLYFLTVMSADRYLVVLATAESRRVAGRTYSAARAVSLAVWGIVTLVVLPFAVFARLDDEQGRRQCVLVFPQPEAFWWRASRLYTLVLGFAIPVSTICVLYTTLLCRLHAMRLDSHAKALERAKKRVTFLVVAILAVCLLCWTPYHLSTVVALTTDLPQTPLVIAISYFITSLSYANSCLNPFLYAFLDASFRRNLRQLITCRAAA
Experimental Details: GPR7 receptor antagonists, primary screen, cell-based, fluorescence, single concentration (AID 1861)
Measurement Setup: GPR7-expressing cells, fluorescence antagonist assay; at 4.4 µM
Among all 290,000 compounds or so, about 3,100 (1.1%) were called active. Rule as the data show it: active = inhibition above about 16% (passing the limit was not always enough); inactive = the rest. This is one part of a sample in which actives are shown more often than they occur.
Hi! Could you answer with just one of these? yes (1) for active, no (0) for inactive

CCCC(=O)Nc1nc2ccc(NC(=O)c3cccnc3)cc2s1
no (0)
COCCNC(=O)c1ccc2c(c1)ncn2-c1ccc(C)c(Cl)c1
no (0)

Here's the next entry for you.
Q: Recorded test outcome, item `COc1ccc(C(=O)CSc2nnc(COc3ccccc3)n2Cc2ccco2)cc1`
Result: yes (1)

----------
# inhibition per entry
Study System: Neuropeptides B/W receptor type 1 (Homo sapiens) (UniProt P48145)
Experimental Details: GPR7 receptor antagonists, primary screen, cell-based, fluorescence, single concentration (AID 1861)
Measurement Setup: GPR7-expressing cells, fluorescence antagonist assay; at 4.4 µM; active compounds read high
In all, about 290,000 compounds went through this assay and about 3,100 (1.1%) were called active. The entries come from a sample that favours actives as a whole.
Lab book: enter the figure in %, no units written.

Below, each entry is followed by its recorded inhibition result.
COc1cc2ccccc2cc1C(=O)Nc1ccc(NC(=O)c2cccs2)cc1
-3.15
COc1ccc(-n2c(C)cc(C(=O)COC(=O)c3cc(OC)c(OC)cc3NC(=O)c3cccs3)c2C)cc1
27.1

Now consider the entry below.
Q: Complete the entry with inhibition for Cc1ccc(NC(=S)N(Cc2ccco2)C(C)c2cccs2)cc1 (stereo not drawn)
Result: -21.7

----------
Study System: Neuropeptides B/W receptor type 1 (Homo sapiens) (UniProt P48145)
Experimental Details: GPR7 receptor antagonists, primary screen, cell-based, fluorescence, single concentration (AID 1861);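 also: cells stimulated with the agonist NPW; 0% = agonist with vehicle and 100% = vehicle without agonist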
Measurement Setup: GPR7-expressing cells, fluorescence antagonist assay; at 4.4 µM; active compounds read high
Among all 290,000 compounds or so, about 3,100 (1.1%) were called active. The full list was thinned out, with actives kept by preference.
# inhibition per entry
Lab book: enter the figure in %, no units written.

CC(=O)Nc1ccc(S(=O)(=O)N(C)CC(=O)NCCC2=CCCCC2)cc1
26.4
c1ccc2c(c1)CSc1sccc1C2=C1CCNCC1
24.5

Q: Identify measured inhibition obtained with Neuropeptides B/W receptor type 1 (Homo sapiens) (UniProt P48145) for `Cc1cc2nc(SCCN3CCOCC3)[nH]c2cc1C` .
Result: 3.59

Q: Identify measured inhibition obtained with Neuropeptides B/W receptor type 1 (Homo sapiens) (UniProt P48145) for `Cc1ccc(NS(=O)(=O)c2ccc(-c3ccc(=O)[nH]n3)o2)c(C)c1` .
Result: -0.17

Q: Identify measured inhibition obtained with Neuropeptides B/W receptor type 1 (Homo sapiens) (UniProt P48145) for `COC(=O)CN1C(=O)C(C)(C)Oc2ccc(C(=O)Nc3cccc(OC)c3)cc21` .
Result: -8.64

----------
Study System: Neuropeptides B/W receptor type 1 (Homo sapiens) (UniProt P48145)
Experimental Details: GPR7 receptor antagonists, primary screen, cell-based, fluorescence, single concentration (AID 1861);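 also: cells stimulated with the agonist NPW; 0% = agonist with vehicle and 100% = vehicle without agonist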
Measurement Setup: GPR7-expressing cells, fluorescence antagonist assay; at 4.4 µM; active compounds read high
About 3,100 (1.1%) of roughly 290,000 compounds were called active. The sample as a whole holds a higher share of actives than the screen did.
Assay Metric: inhibition

Below, each entry is followed by its recorded inhibition result.
Cc1c(CCO)c(=O)n(-c2ccccc2)n1S(=O)(=O)c1ccc(F)cc1
33% (active)
CCOC(=O)C1CN(S(=O)(=O)c2ccc(F)cc2)C1
-9.92% (inactive)
O=C(NCCCN1CCOCC1)c1cc(-c2ccccc2F)no1
-6.4% (inactive)
COc1ccc(OCc2nnc3n2N=C(c2ccccc2)C(CC(=O)O)S3)cc1 (stereo not drawn)
-5.82% (inactive)
Cc1cc(OC(C)C(=O)NC2CC(C)(C)NC(C)(C)C2)c2c(C)cc(=O)oc2c1 (stereo not drawn)
27.1% (active)

Q: Complete the entry with inhibition for Cc1ccc(CNC(=O)C2CCN(S(=O)(=O)c3ccc4nc5c(c(C(=O)O)c4c3)CC(C)CC5)CC2)cc1 (stereo not drawn)
Result: 27.2% (active)

Q: Complete the entry with inhibition for `CN(C)CCCNC(=S)N1CCN(c2nc(-c3ccccc3)cs2)CC1`
Result: 5.73% (inactive)

Q: Complete the entry with inhibition for O=C(NCCCN1CCCCC1)c1ccc2c(c1)NC(=O)C(N1CCOCC1)S2 (stereo not drawn)
Result: -14.1% (inactive)

----------
# inhibition per entry
Study System: Neuropeptides B/W receptor type 1 (Homo sapiens)
Experimental Details: GPR7 receptor antagonists, primary screen, cell-based, fluorescence, single concentration (AID 1861);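 also: cells stimulated with the agonist NPW; 0% = agonist with vehicle and 100% = vehicle without agonist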
Measurement Setup: GPR7-expressing cells, fluorescence antagonist assay; at 4.4 µM; active compounds read high
Among all 290,000 compounds or so, about 3,100 (1.1%) were called active. This is one part of a sample in which actives are shown more often than they occur.
Lab book: enter the figure in %, no units written.

Cc1ccc(S(=O)(=O)N2CCN(c3ccccc3)CC2)cc1C
0.58
CCC(C(=O)Nc1ccc2c(c1)OCCO2)c1ccccc1 (stereo not drawn)
-8.4
CNS(=O)(=O)c1cccc(C(=O)NCC2CCCCC2)c1
5.35
CN1CCN(CCNC(=O)Nc2ccc([N+](=O)[O-])cc2)CC1
1.21
CCOCCCNC(=O)c1ccc(CS(=O)(=O)c2cccc(C(F)(F)F)c2)o1
6.51

Q: Complete the entry with inhibition for `CSc1ccccc1NC(=O)CN(C)CC(=O)Nc1ccc(Cl)cc1[N+](=O)[O-]`
Result: 12.5

Q: Complete the entry with inhibition for `Nc1cccc2c1C(=O)N(Cc1nnc(-c3ccccc3Br)o1)C2=O`
Result: -16

Q: Complete the entry with inhibition for Clc1ccc(C2CC(c3cccs3)n3ncnc3N2)cc1Cl (stereo not drawn)
Result: 24.9

Q: Complete the entry with inhibition for `O=C(c1ccc(Cl)cc1)c1cnc(Nc2ccccc2)s1`
Result: 7.11

Q: Complete the entry with inhibition for `COCCOC1CCN(C(=O)c2ccc(OC)c(OC3CCN(C(C)C)CC3)c2)CC1`
Result: -13.7

Q: Complete the entry with inhibition for `O=C(Nc1ccccc1)c1nnsc1S(=O)(=O)c1ccc(Cl)cc1`
Result: 42.6

Q: Complete the entry with inhibition for CC(C)c1ccc(C(=O)OC2CCOC2=O)cc1 (stereo not drawn)
Result: -10.7

Q: Complete the entry with inhibition for `O=C(Cn1nc(CNc2ccc(Cl)cc2)[n+]2c1CCCCC2)c1ccc(Cl)cc1`
Result: -3.46
